Test: Solubility of ocaperidone in water and buffers of gastro-intestinal fluids
Assay type: physicochemical
Settings: water
measure-name: solubility (µg/mL)
# unit: µg/mL | format: bare number

Return solubility for the following compound: Cc1nc2c(C)cccn2c(=O)c1CCN1CCC(c2noc3cc(F)ccc23)CC1
7
